Measured Ratio OD(Variant)/OD(WT) by item
measurementTarget: HRgpA-6H (Porphyromonas gingivalis) (UniProt P28784)
assay: ELISA, FASEBA screening, coated HRgpA-6H; variant OD over parental WT Fab OD

Example cases with answers are listed next.
KB001 parental mouse Fab FASEBA variant VH N100P (Fab, V domains shown) VH: EVQLKQSGPGLVAPSQSLSITCTVSGFSLSIYSVHWVRQPPGKGLEWLGMIWGGGSSDYNSALKSRLSISKDNSKSQVFLKMNSLQTDDTAMYYCARNGPFYAMDYWGQGTSVTVSS VL: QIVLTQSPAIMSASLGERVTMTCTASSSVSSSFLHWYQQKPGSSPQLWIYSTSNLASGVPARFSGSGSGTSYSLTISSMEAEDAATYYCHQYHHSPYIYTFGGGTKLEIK | 0.894
KB001 parental mouse Fab FASEBA variant VH S65F (Fab, V domains shown) VH: EVQLKQSGPGLVAPSQSLSITCTVSGFSLSIYSVHWVRQPPGKGLEWLGMIWGGGSSDYNSALKFRLSISKDNSKSQVFLKMNSLQTDDTAMYYCARNGNFYAMDYWGQGTSVTVSS VL: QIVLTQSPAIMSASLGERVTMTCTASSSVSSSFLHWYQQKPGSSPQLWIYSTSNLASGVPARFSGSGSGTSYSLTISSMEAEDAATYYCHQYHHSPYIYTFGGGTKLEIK | 0.895
KB001 parental mouse Fab FASEBA variant VH K64M (Fab, V domains shown) VH: EVQLKQSGPGLVAPSQSLSITCTVSGFSLSIYSVHWVRQPPGKGLEWLGMIWGGGSSDYNSALMSRLSISKDNSKSQVFLKMNSLQTDDTAMYYCARNGNFYAMDYWGQGTSVTVSS VL: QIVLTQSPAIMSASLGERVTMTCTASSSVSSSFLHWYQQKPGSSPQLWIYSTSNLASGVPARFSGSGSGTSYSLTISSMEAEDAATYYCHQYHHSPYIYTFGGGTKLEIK | 0.948
KB001 parental mouse Fab FASEBA variant VH K64L (Fab, V domains shown) VH: EVQLKQSGPGLVAPSQSLSITCTVSGFSLSIYSVHWVRQPPGKGLEWLGMIWGGGSSDYNSALLSRLSISKDNSKSQVFLKMNSLQTDDTAMYYCARNGNFYAMDYWGQGTSVTVSS VL: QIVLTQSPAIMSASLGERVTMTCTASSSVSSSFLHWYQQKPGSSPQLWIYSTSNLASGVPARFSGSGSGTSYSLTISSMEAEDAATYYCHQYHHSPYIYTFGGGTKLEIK | 0.803
KB001 parental mouse Fab FASEBA variant VH K64G (Fab, V domains shown) VH: EVQLKQSGPGLVAPSQSLSITCTVSGFSLSIYSVHWVRQPPGKGLEWLGMIWGGGSSDYNSALGSRLSISKDNSKSQVFLKMNSLQTDDTAMYYCARNGNFYAMDYWGQGTSVTVSS VL: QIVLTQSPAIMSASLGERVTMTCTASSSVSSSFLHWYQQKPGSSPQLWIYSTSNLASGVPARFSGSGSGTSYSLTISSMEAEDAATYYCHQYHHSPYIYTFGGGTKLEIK | 0.981
KB001 parental mouse Fab FASEBA variant VH G99C (Fab, V domains shown) VH: EVQLKQSGPGLVAPSQSLSITCTVSGFSLSIYSVHWVRQPPGKGLEWLGMIWGGGSSDYNSALKSRLSISKDNSKSQVFLKMNSLQTDDTAMYYCARNCNFYAMDYWGQGTSVTVSS VL: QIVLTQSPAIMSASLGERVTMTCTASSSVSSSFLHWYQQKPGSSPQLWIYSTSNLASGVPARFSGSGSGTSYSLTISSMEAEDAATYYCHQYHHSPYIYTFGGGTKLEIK | 0.974

Okay, next one:
Ratio OD(Variant)/OD(WT) recorded for this binder, KB001 parental mouse Fab FASEBA variant VH N100F (Fab, V domains shown) VH: EVQLKQSGPGLVAPSQSLSITCTVSGFSLSIYSVHWVRQPPGKGLEWLGMIWGGGSSDYNSALKSRLSISKDNSKSQVFLKMNSLQTDDTAMYYCARNGFFYAMDYWGQGTSVTVSS VL: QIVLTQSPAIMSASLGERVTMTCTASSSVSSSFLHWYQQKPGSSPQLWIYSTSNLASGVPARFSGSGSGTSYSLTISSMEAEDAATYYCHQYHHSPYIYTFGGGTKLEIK , is 0.92
